Please respond with reported solubility at 6 h for every item in the list.
Experiment: Solubility of compound in water at 5 mg incubated at 25 degreeC for 6 hrs by UHPLC analysis
Assay type: physicochemical
Report the figure in µg/mL without appending any unit label.

Param item = C[C@@H]1C[C@H]2[C@@H]3CCC4=CC(=O)C=C[C@]4(C)[C@@]3(F)[C@@H](O)C[C@]2(C)[C@@]1(O)C(=O)COC(=O)CN=C=S ; retrieve measured solubility at 6 h.
0.14

Param item = C[C@]12C=CC(=O)C=C1CC[C@@H]1[C@@H]2[C@@H](O)C[C@@]2(C)[C@H]1C[C@H]1O[C@@H](C3CCCCC3)O[C@]12C(=O)COC(=O)CN=C=S ; retrieve measured solubility at 6 h.
0.55

Param item = C[C@]12C=CC(=O)C=C1CC[C@@H]1[C@@H]2C(=O)C[C@@]2(C)[C@H]1CC[C@]2(O)C(=O)COC(=O)CN=C=S ; retrieve measured solubility at 6 h.
5.26
